# Target entity: Fhit active site of NitFhit (Caenorhabditis elegans, UniProt O76463)
# Construct: generated an NdeI site at the initiator codon and an XhoI site 3′ of the stop codon; made in house; host or cells: E. coli strain ER2566
# Sequence (O76463 1-440): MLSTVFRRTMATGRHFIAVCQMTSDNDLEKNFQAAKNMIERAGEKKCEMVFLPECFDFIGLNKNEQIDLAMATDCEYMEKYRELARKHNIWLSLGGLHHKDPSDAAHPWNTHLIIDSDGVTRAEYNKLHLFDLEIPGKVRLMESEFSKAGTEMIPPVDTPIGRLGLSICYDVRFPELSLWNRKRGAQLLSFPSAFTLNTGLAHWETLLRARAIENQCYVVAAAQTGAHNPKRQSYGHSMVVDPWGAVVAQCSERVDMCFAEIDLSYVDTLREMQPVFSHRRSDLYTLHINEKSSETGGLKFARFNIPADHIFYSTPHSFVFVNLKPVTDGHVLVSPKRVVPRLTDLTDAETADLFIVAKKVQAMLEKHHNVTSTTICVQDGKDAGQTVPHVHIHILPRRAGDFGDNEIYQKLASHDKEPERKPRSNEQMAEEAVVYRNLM
# Assay remarks: Nonlabeled compounds as competitive inhibitors of ApppBODIPY hydrolysis
# Assay type: biochemical, C. elegans
pKi values for the compounds below.
pKi is a log-scale quantity: -log10 of the concentration expressed in molar.

Known results for compounds:
{"Compound": "O=P(O)(O)OP(=O)(O)O [pyrophosphate]", "Quantity name": "pKi", "Experimental value": 4.11}
{"Compound": "Nc1ncnc2c1ncn2[C@@H]1O[C@H](COP(O)(=S)OP(=O)(O)OP(=O)(O)O)[C@@H](O)[C@H]1O (stereo partly shown) [ATP-αS]", "Quantity name": "pKi", "Experimental value": 3.54}

Asked: Quickly give me recorded pKi for Nc1ncnc2c1ncn2[C@@H]1O[C@H](COP(=O)(O)O)[C@@H](O)[C@H]1O [AMP]
Given back: 3.82

Asked: Supply recorded pKi for Nc1nc(O)c2ncn([C@@H]3O[C@H](COP(=O)(S)OP(=O)(O)OP(=O)(O)O)[C@@H](O)[C@H]3O)c2n1 (stereo partly shown) [GTP-αS] here.
Given back: 3.32
